Just for reference, paper PMC11213934 is where these values come from.

# System: wild-type (AB) zebrafish (Danio rerio)
# Method description: animal or person
# Type: in vivo
# Condition notes: compound at 10 µM relative to controls; mean ± s.e.m., N = 12
# Experimental: Larval zebrafish were produced in the University of Toledo zebrafish core facility and housed in an incubator maintained at 28 °C on a 14:10 h cycle. Fish were acclimated to the testing room conditions the evening prior to testing. […] The movement of larval zebrafish was monitored with the Noldus behavior recording system (Noldus Information Technology, Leesburg VA) and quantified using EthoVision® XT 15 software (Noldus Information Technology, Leesburg VA). […]
Marks after values point to notes of the source that are not given here.
Measurement name: Variance turn angle

Please review the entries below; each comes with its answer.
INSERT INTO measurements (compound, measured_result) VALUES
  ('O=C1C(=O)N(Cc2ccc(O)cc2)c2ccccc21 [Compound 10, 1-(4-hydroxybenzyl)indoline-2,3-dione]', '135.3 ± 13.5* %'),
  ('COc1c(Br)cc(CN2C(=O)C(=O)c3ccccc32)cc1Br', '150.8 ± 12.0*** %'),
  ('COc1cc(CN2C(=O)C(=O)c3ccccc32)cc(OC)c1OC', '126.3 ± 10.8* %'),
  ('O=C1C(=O)N(Cc2cc(F)c(F)c(F)c2)c2ccccc21', '146.1 ± 16.1** %'),
  ('CCCCc1oc2ccc(NS(C)(=O)=O)cc2c1C(=O)c1ccc(OCCCN(CCCC)CCCC)cc1 [Dronedarone, reference compound]', '141.6 ± 12.5*** %');

Which Variance turn angle is listed for "COc1c(F)cc(CN2C(=O)C(=O)c3ccccc32)cc1F" ?
126.5 ± 10.4* %

Which Variance turn angle is listed for "COc1ccc(CN2C(=O)C(=O)c3ccccc32)cc1Br" ?
170.2 ± 15.1*** %

Which Variance turn angle is listed for "CCN(CC)CCOc1c(Br)cc(CN2C(=O)C(=O)c3ccccc32)cc1Br.Cl" ?
166.1 ± 12.5*** %

Which Variance turn angle is listed for "COc1ccc(CN2C(=O)C(=O)c3ccccc32)cc1Cl" ?
127.9 ± 16.2%

Which Variance turn angle is listed for "COc1c(Cl)cc(CN2C(=O)C(=O)c3ccccc32)cc1Cl" ?
158.8 ± 14.3*** %

Which Variance turn angle is listed for "COc1ccc(CN2C(=O)C(=O)c3ccccc32)cc1F" ?
148.0 ± 12.4*** %

Which Variance turn angle is listed for COc1ccc(Cn2cc(C(=O)O)c(=O)c3ccccc32)cc1 [BQCA, reference compound] ?
119.6 ± 7.0* %

Which Variance turn angle is listed for "CCCCc1oc2ccccc2c1C(=O)c1cc(I)c(OCCN(CC)C(C)=O)c(I)c1" ?
102.5 ± 8.1%

Which Variance turn angle is listed for "CCCCc1oc2ccccc2c1C(=O)c1ccc(OCCN(CC)CC)cc1" ?
136.4 ± 11.8%

Which Variance turn angle is listed for "COc1c(I)cc(CN2C(=O)C(=O)c3ccccc32)cc1I" ?
161.1 ± 13.4*** %

Which Variance turn angle is listed for CCCCc1oc2ccccc2c1C(=O)c1cc(I)c(OCCN(CC)CC)c(I)c1 [Amiodarone, reference compound] ?
102.2 ± 10.4%

Which Variance turn angle is listed for "CCCCc1oc2ccccc2c1C(=O)c1cc(I)c(OC)c(I)c1" ?
133.7 ± 14.0* %

Which Variance turn angle is listed for "CCCCc1oc2ccccc2c1C(=O)c1ccc(OC)cc1" ?
115.8 ± 13.0%

Which Variance turn angle is listed for "COc1ccc(CN2C(=O)C(=O)c3ccccc32)cc1I" ?
143.0 ± 13.5** %

Which Variance turn angle is listed for "CCN(CC)CCOc1ccc(CN2C(=O)C(=O)c3ccccc32)cc1" ?
93.9 ± 10.6%
